TEST_READOUT: logP
Form: value (number only, do not type unit).

Qu. What value of measured logP is listed for NC(=O)c1cssc1=S ?
Ans. 0.3

Turning now to a further record.
Qu. What value of measured logP is listed for Cc1c(-c2cnccn2)ssc1=S ?
Ans. 2.79

* * *

ASSAY_OVERVIEW: method code SF-RC, from Audran, M.; Chanal, J.; Berge, G.; Marignan, R. (1983). Binding-structure correlation of bovine serum albumin in a series of cresotinamides. International Journal of Pharmaceutics, 15(3)273-284.
RUN_CONDITIONS: pH 1.0
TEST_READOUT: logD
Form: value (number only, do not type unit).

Example cases with answers are listed next.
Qu. What value of measured logD is listed for CNC(=O)c1cc(Br)cc(C)c1O ?
Ans. 3.51

Qu. What value of measured logD is listed for Cc1cc(Br)cc(C(=O)NC2CC2)c1O ?
Ans. 3.8

Turning now to a further record.
Qu. What value of measured logD is listed for CCCCNC(=O)c1cc(Br)cc(C)c1O ?
Ans. 4.21

* * *

Catalogue of logP values
Form: value (number only, do not type unit).

Example cases with answers are listed next.
Qu. What value of measured logP is listed for Clc1ccc2c(ccc3ccccc32)c1 ?
Ans. 5.16

Qu. What value of measured logP is listed for ClC(Cl)=C(Cl)c1c(Cl)c(Cl)c(Cl)c(Cl)c1Cl ?
Ans. 6.29

Qu. What value of measured logP is listed for CCNc1nc(Cl)nc(NC(C)C)n1 ?
Ans. 2.63

Turning now to a further record.
Qu. What value of measured logP is listed for COc1c(Br)cc(Br)cc1Br ?
Ans. 4.48

* * *

Catalogue of logP values
ASSAY_OVERVIEW: method code SF-AS, from Busch, N.; Moleyre, J.; Bondivenne, R.; Labrid, C. (1973). Study of the predictive value of the Hansch correlation equations for a series of beta-alkoxy-beta-phenylethyl pyrrolidines. Chimica …

Qu. What value of measured logP is listed for COC(CN1CCCC1)c1ccccc1 (configuration not stated) ?
Ans. 1.88

Turning now to a further record.
Qu. What value of measured logP is listed for OC(CN1CCCC1)c1ccccc1 (configuration not stated) ?
Ans. 1.38

* * *

TEST_READOUT: logP
Form: value (number only, do not type unit).

Qu. What value of measured logP is listed for CCC(C)c1ccccc1OC(=O)NC (stereo unspecified) ?
Ans. 2.8

* * *

ASSAY_OVERVIEW: method code SF-AS, from Halmekoski, J.; Hannikainen, H. (1964). Rm values of hydroxy-substituted benzoic acids and partition coefficients of the acids between water and aliphatic alcohols. Suomen Kemist. B, 37, 221-226.
TEST_READOUT: logP
Form: value (number only, do not type unit).

Qu. What value of measured logP is listed for O=C(O)c1cccc(O)c1O ?
Ans. 1.2

* * *

TEST_READOUT: logP
Form: value (number only, do not type unit).

Qu. What value of measured logP is listed for O=[N+]([O-])c1ccc(Oc2ccc(C(F)(F)F)cc2[N+](=O)[O-])cc1 ?
Ans. 3.7

* * *

ASSAY_OVERVIEW: method code SF-RC, from DOI: 10.1016/j.nucmedbio.2010.09.012, PMID: 21492779
RUN_CONDITIONS: pH 7.4
TEST_READOUT: logD
Form: value (number only, do not type unit).

Qu. What value of measured logD is listed for CN(C)c1ccc(-c2nc3ccc(I)cc3[nH]2)cc1 ?
Ans. 2.8

* * *

ASSAY_OVERVIEW: method code SF-AS, from DOI: 10.1016/0378-5173(82)90004-7
RUN_CONDITIONS: pH 3.0
TEST_READOUT: logD
Form: value (number only, do not type unit).

Qu. What value of measured logD is listed for C=CCC1(C)C(=O)NC(=O)NC1=O ?
Ans. 0.36

Qu. What value of measured logD is listed for O=C1NC(=O)C(c2ccccc2)(c2ccccc2)C(=O)N1 ?
Ans. 1.96

Qu. What value of measured logD is listed for CCC1(C)C(=O)NC(=O)NC1=O ?
Ans. 0.08

Turning now to a further record.
Qu. What value of measured logD is listed for CC1(c2ccccc2)C(=O)NC(=O)NC1=O ?
Ans. 0.91

* * *

ASSAY_OVERVIEW: method code SF, from DOI: 10.1177/00220345800590120501, PMID: 6941993
TEST_READOUT: logP
Form: value (number only, do not type unit).

Qu. What value of measured logP is listed for C=COC(C)=O ?
Ans. 0.6

* * *

ASSAY_OVERVIEW: method code SF-RC, from DOI: 10.1002/jps.2600730807, PMID: 6491907
TEST_READOUT: logP
Form: value (number only, do not type unit).

Qu. What value of measured logP is listed for CC1OC(OC2C(O)CC(OC3C(O)CC(OC4CCC5(C)C(CCC6C5CC(O)C5(C)C(C7COC(=O)C7)CCC65O)C4)OC3C)OC2C)CC(O)C1O (stereo unspecified) ?
Ans. 1.25

* * *

Catalogue of logP values

Qu. What value of measured logP is listed for CN(C)C(=O)Nc1ccccc1 ?
Ans. 1.18

Qu. What value of measured logP is listed for CCN(CC)c1nc(C)cc(OP(=S)(OC)OC)n1 ?
Ans. 3.8

Qu. What value of measured logP is listed for CCOC(=O)CC(SP(=S)(OC)OC)C(=O)OCC (centres undefined) ?
Ans. 2.18

Turning now to a further record.
Qu. What value of measured logP is listed for COP(=S)(OC)Oc1nc(Cl)c(Cl)cc1Cl ?
Ans. 3.99

* * *

ASSAY_OVERVIEW: method code SF-AS, from DOI: 10.1016/s0003-2670(01)80868-0
TEST_READOUT: logP
Form: value (number only, do not type unit).

Example cases with answers are listed next.
Qu. What value of measured logP is listed for CC(=O)CC(C)=O ?
Ans. 0.14

Qu. What value of measured logP is listed for CCC(=O)CC(=O)CC ?
Ans. 1.12

Qu. What value of measured logP is listed for CCCC(=O)CC(=O)CCC ?
Ans. 2.23

Qu. What value of measured logP is listed for CC(=O)CC(=O)C(C)(C)C ?
Ans. 1.67

Turning now to a further record.
Qu. What value of measured logP is listed for CC(C)C(=O)CC(=O)C(C)C ?
Ans. 2.22

* * *

ASSAY_OVERVIEW: method code SF-RC, from DOI: 10.1111/j.2042-7158.1987.tb03173.x, PMID: 2886623
TEST_READOUT: logP

Qu. What value of measured logP is listed for OC[C@@H](O)[C@@H](O)[C@H](O)[C@H](O)CO (racemic) ?
Ans. -2.47

* * *

ASSAY_OVERVIEW: method code SF, from DOI: 10.1016/0043-1354(79)90201-x
TEST_READOUT: logP
Form: value (number only, do not type unit).

Qu. What value of measured logP is listed for NC(=O)COCc1ccco1 ?
Ans. -0.11

* * *

TEST_READOUT: logP
Form: value (number only, do not type unit).

Qu. What value of measured logP is listed for CC#CC1(O)CC[C@H]2[C@@H]3CCC4=CC(=O)CCC4=C3C(c3ccc(N(C)C)cc3)C[C@@]21C (some centres not stated) ?
Ans. 4.69

Turning now to a further record.
Qu. What value of measured logP is listed for CC(=O)[C@@]1(C)CC[C@H]2[C@@H]3CCC4=CC(=O)CCC4=C3CC[C@@]21C ?
Ans. 4.34

* * *

ASSAY_OVERVIEW: method code SF, from DOI: 10.1016/s0021-9673(00)89463-7
RUN_CONDITIONS: pH 2.4
TEST_READOUT: logD

Qu. What value of measured logD is listed for O=C(O)c1ccc2oc3ccccc3c(=O)c2c1 ?
Ans. 3.12

* * *

ASSAY_OVERVIEW: method code SF-HPLC, from DOI: 10.1023/a:1013643013244, PMID: 11837695
RUN_CONDITIONS: pH 6.4
TEST_READOUT: logD
Form: value (number only, do not type unit).

Qu. What value of measured logD is listed for CCCN1C(=O)CCC(N2C(=O)c3ccccc3C2=O)C1=O (stereo unspecified) ?
Ans. 2.11

* * *

ASSAY_OVERVIEW: method code SF-AS, from DOI: 10.1248/cpb.25.1350, PMID: 890858
RUN_CONDITIONS: pH 6.5
TEST_READOUT: logD
Form: value (number only, do not type unit).

Qu. What value of measured logD is listed for CCC(=O)OCc1c(CSSCc2cnc(C)c(OC(=O)CC)c2COC(=O)CC)cnc(C)c1OC(=O)CC ?
Ans. 2.68

* * *

ASSAY_OVERVIEW: method code SF-AS, from DOI: 10.1081/jlc-100104900
RUN_CONDITIONS: pH 1.0
TEST_READOUT: logD
Form: value (number only, do not type unit).

Qu. What value of measured logD is listed for CC(C(=O)O)c1ccc(C(=O)c2ccccc2)s1 (stereo unspecified) ?
Ans. 2.86
